Measured values drawn from patent US20060069132A1 for this set.

- System: johnsongrass
- test.protocol: Test C pre-/postemergence herbicide test
- Type: in vivo, Sorghum halepense
- condition.parameters: 125 g ai/ha; scale 0 (no effect) to 100 (complete control); visual, 12 to 14 days; preemergence
# cutoff 90 applies to Plant response rating, Johnsongrass; >= gives met, < gives not met

Please check the record `CCOC(=O)c1cc(NC(=O)c2cc(C(C)(C)C)nn2CC)ccc1OC` and state if its Plant response rating, Johnsongrass is at or above 90.
not met

Please check the record `CCn1nc(C2(C)CC2)cc1C(=O)Nc1cc(C(=O)N(C)C)ccc1F` and state if its Plant response rating, Johnsongrass is at or above 90.
met

Please check the record `CCn1nc(C(C)(C)C)cc1C(=O)Nc1cccc(C(N)=O)n1` and state if its Plant response rating, Johnsongrass is at or above 90.
not met

Please check the record `CCn1nc(C(C)(C)C)cc1C(=O)Nc1cc(C(=S)N(C)C)ccc1F` and state if its Plant response rating, Johnsongrass is at or above 90.
met

Please check the record `CC(=NO)c1cccc(NC(=O)c2sc(C(C)(C)C)nc2C)c1` and state if its Plant response rating, Johnsongrass is at or above 90.
not met

Please check the record `C=Cn1nc(C(C)(C)C)cc1C(=O)Nc1cccc(C(C)=NO)c1` and state if its Plant response rating, Johnsongrass is at or above 90.
not met

Please check the record `CCNC(=O)c1cccc(NC(=O)c2sc(C(C)(C)C)nc2CC)n1` and state if its Plant response rating, Johnsongrass is at or above 90.
not met

Please check the record `CCn1nc(C(C)(C)C)cc1C(=O)Nc1cc(C(=S)N(C)C)ccn1` and state if its Plant response rating, Johnsongrass is at or above 90.
met

---

- Tested on: small flower umbrella sedge
- test.protocol: Test B flooded paddy test
- Assay type: in vivo, Cyperus difformis
- condition.parameters: 1000 g ai/ha, visual rating, scale 0 to 100 (0 no effect, 100 complete control), 13 to 15 days
Hi! Could you tag entries with Sedge, Umbrella plant response rating below 50 as TRUE, and those at or above as FALSE? Much appreciated.

Here's an entry: CCOC(=O)c1ccc(F)c(NC(=O)c2cc(C(C)C)nn2CC)c1 [Compound 73] . Is its Sedge, Umbrella plant response rating below 50?
FALSE

Here's an entry: CCNC(=O)c1cccc(NC(=O)c2cn(C(C)(C)C)nc2C)c1 [Compound 183] . Is its Sedge, Umbrella plant response rating below 50?
FALSE

Here's an entry: CCOC(=O)c1ccc(F)c(NC(=O)c2cc(C3CC3)nn2CC)c1 [Compound 74] . Is its Sedge, Umbrella plant response rating below 50?
FALSE

Here's an entry: CCNC(=O)c1cccc(NC(=O)c2cn(C(C)(C)C)nc2C(F)(F)F)c1 [Compound 192] . Is its Sedge, Umbrella plant response rating below 50?
FALSE

Here's an entry: CCCCNS(=O)(=O)c1cccc(NC(=O)c2cc(C(C)(C)C)nn2C)c1 [Compound 125] . Is its Sedge, Umbrella plant response rating below 50?
TRUE

Here's an entry: COC(=O)c1cccc(NC(=O)c2sc(C(C)(C)C)nc2C)c1 [Compound 197] . Is its Sedge, Umbrella plant response rating below 50?
TRUE

Here's an entry: CCc1nc(C(C)(C)C)sc1C(=O)Nc1cccc(C(=O)NCC(C)C)c1 [Compound 211] . Is its Sedge, Umbrella plant response rating below 50?
TRUE

Here's an entry: CCC(C)c1cc(C(=O)Nc2cccc(C(C)=NO)c2)n(C)n1 (stereo not drawn) [Compound 120] . Is its Sedge, Umbrella plant response rating below 50?
TRUE

---

Give Barnyardgrass plant response rating for every item shown.
- Test system: barnyardgrass
- test.protocol: Test A pre-/postemergence herbicide test
- Assay type: in vivo, Echinochloa crus-galli
- condition.parameters: Postemergence, 500 g ai/ha; 0 to 100 scale, 0 no effect, 100 complete control
Reply with just the number.

Input `CCCCNS(=O)(=O)c1cccc(NC(=O)c2cc(C(C)(C)C)nn2C)c1` , output reported Barnyardgrass plant response rating.
0

Input `CC(=NO)c1cccc(NC(=O)c2sc(C(C)(C)C)nc2C)c1` , output reported Barnyardgrass plant response rating.
15

Input `CCc1nn(C(C)(C)C)cc1C(=S)Nc1cc(C(=S)N(C)C)ccc1F` , output reported Barnyardgrass plant response rating.
15

Input `CCn1nc(C(C)(C)C)cc1C(=O)Nc1nc(OC)cc(OC)n1` , output reported Barnyardgrass plant response rating.
0

Input `CCCCOC(=O)c1cccc(NC(=O)c2cc(C(C)(C)C)nn2CC)c1` , output reported Barnyardgrass plant response rating.
20

Input `C=CCNC(=O)c1cccc(NC(=O)c2sc(C(C)(C)C)nc2CC)c1` , output reported Barnyardgrass plant response rating.
40

Input `CC(=NO)c1cc(NC(=O)c2cc(C(C)(C)C)nn2C)ccc1F` , output reported Barnyardgrass plant response rating.
75

Input `CCn1nc(C(C)(C)C)cc1C(=O)Nc1cccc(C(=O)OC(C)(C)C)c1` , output reported Barnyardgrass plant response rating.
0

Input `CCc1nn(C2CCCC2)nc1C(=O)Nc1cccc(C(=O)N2CC=CC2)c1` , output reported Barnyardgrass plant response rating.
20

---

- Tested on: cocklebur
- test.protocol: Test C pre-/postemergence herbicide test
- Assay type: in vivo, Xanthium strumarium
- condition.parameters: 500 g ai/ha; scale 0 to 100 (0 no effect, 100 complete control); visual, 12 to 14 days; preemergence
assay.metric: Plant response rating, Cocklebur
Reply with just the number.

Provide measured Plant response rating, Cocklebur on cocklebur for CCNC(=O)c1cccc(NC(=O)c2nn(C(C)(C)C)nc2C)c1 [Compound 392] please.
80

Provide measured Plant response rating, Cocklebur on cocklebur for CCc1nn(C(C)(C)C)nc1C(=S)Nc1cccc(C(=S)N(C)C)c1 [Compound 396] please.
0

Provide measured Plant response rating, Cocklebur on cocklebur for C=CCNC(=O)c1cccc(NC(=O)c2nn(C(C)(C)C)nc2CC)c1 [Compound 414] please.
30

Provide measured Plant response rating, Cocklebur on cocklebur for CCC1=NN(C(C)(C)C)CC1C(=O)Nc1cc(C(=O)N(C)C)ccc1F (racemic) [Compound 343] please.
100

---

- Tested on: Surinam grass
- test.protocol: Test B pre-/postemergence herbicide test
- Type: in vivo, Urochloa decumbens
- condition.parameters: Postemergence, 500 g ai/ha; scale 0 (no effect) to 100 (complete control)
Give Surinam Grass plant response rating for every item shown.
Reply with just the number.

Input `CCc1nn(C(C)(C)C)nc1C(=O)Nc1cccc(C(=O)N(C)CC)c1` , output reported Surinam Grass plant response rating.
60

Input `CCNC(=O)c1ccc(F)c(NC(=O)c2nn(C(C)(C)C)nc2C)c1` , output reported Surinam Grass plant response rating.
10

Input `C=CCNC(=O)c1ccc(F)c(NC(=O)c2nn(C(C)(C)C)nc2CC)c1` , output reported Surinam Grass plant response rating.
20

Input `CCc1nn(C(C)(C)CC)nc1C(=O)Nc1cc(C(=O)N(C)C)ccc1F` , output reported Surinam Grass plant response rating.
0

Input `CCNC(=O)c1cccc(NC(=O)c2nn(C(C)(C)C)nc2C)c1` , output reported Surinam Grass plant response rating.
20

Input `CCOC(=O)c1ccc(F)c(NC(=O)c2nn(C(C)(C)CC)nc2CC)c1` , output reported Surinam Grass plant response rating.
20

Input `CCN(CC)C(=O)c1cccc(NC(=O)c2nn(C(C)(C)C)nc2C)n1` , output reported Surinam Grass plant response rating.
10

Input `CCN(CC)C(=O)c1ccnc(NC(=O)c2nn(C(C)(C)C)nc2C)c1` , output reported Surinam Grass plant response rating.
20

Input `CCN(C)C(=O)c1ccc(F)c(NC(=O)c2nn(C(C)C)nc2C)c1` , output reported Surinam Grass plant response rating.
10

Input `Cc1nn(C(C)(C)C)nc1C(=O)Nc1cc(C(=O)N(C)C)ccn1` , output reported Surinam Grass plant response rating.
30

---

Give Plant response rating, Kochia for every item shown.
- Tested on: kochia
- test.protocol: Test C pre-/postemergence herbicide test
- Type: in vivo, Kochia scoparia
- condition.parameters: 250 g ai/ha; scale 0-100; preemergence
Reply with just the number.

Input `CCn1nc(C(C)(C)C)cc1C(=S)Nc1cc(C(=S)N(C)C)ccc1F` , output reported Plant response rating, Kochia.
100

Input `CCOC(=O)c1cccc(NC(=O)c2nn(C(C)(C)CC)nc2CC)c1` , output reported Plant response rating, Kochia.
100

Input `CCc1nn(C(C)(C)C)nc1C(=O)Nc1cccc(C(=O)N(C)CC)c1` , output reported Plant response rating, Kochia.
100

Input `C=CCNC(=O)c1cccc(NC(=O)c2nn(C(C)(C)C)nc2CC)c1` , output reported Plant response rating, Kochia.
80

Input `CCNC(=O)c1cccc(NC(=O)c2sc(C(C)(C)C)nc2CC)c1` , output reported Plant response rating, Kochia.
90

Input CCC1=NN(C(C)(C)C)CC1C(=O)Nc1cc(C(=O)N(C)C)ccc1F (racemic) , output reported Plant response rating, Kochia.
100

Input `CCc1nn(C(C)(C)C)cc1C(=O)Nc1cc(C(=O)N(CC)CC)ccc1F` , output reported Plant response rating, Kochia.
100
